biological target: rat mGlu5 (Rattus norvegicus (Rat)); experiment: mGlu5 Ca2+ flux assay; format: cell-based; conditions: ratio of rat mGlu5 EC50 or IC50 to rat mGlu3 IC50
Sequence (P31424 21-1203): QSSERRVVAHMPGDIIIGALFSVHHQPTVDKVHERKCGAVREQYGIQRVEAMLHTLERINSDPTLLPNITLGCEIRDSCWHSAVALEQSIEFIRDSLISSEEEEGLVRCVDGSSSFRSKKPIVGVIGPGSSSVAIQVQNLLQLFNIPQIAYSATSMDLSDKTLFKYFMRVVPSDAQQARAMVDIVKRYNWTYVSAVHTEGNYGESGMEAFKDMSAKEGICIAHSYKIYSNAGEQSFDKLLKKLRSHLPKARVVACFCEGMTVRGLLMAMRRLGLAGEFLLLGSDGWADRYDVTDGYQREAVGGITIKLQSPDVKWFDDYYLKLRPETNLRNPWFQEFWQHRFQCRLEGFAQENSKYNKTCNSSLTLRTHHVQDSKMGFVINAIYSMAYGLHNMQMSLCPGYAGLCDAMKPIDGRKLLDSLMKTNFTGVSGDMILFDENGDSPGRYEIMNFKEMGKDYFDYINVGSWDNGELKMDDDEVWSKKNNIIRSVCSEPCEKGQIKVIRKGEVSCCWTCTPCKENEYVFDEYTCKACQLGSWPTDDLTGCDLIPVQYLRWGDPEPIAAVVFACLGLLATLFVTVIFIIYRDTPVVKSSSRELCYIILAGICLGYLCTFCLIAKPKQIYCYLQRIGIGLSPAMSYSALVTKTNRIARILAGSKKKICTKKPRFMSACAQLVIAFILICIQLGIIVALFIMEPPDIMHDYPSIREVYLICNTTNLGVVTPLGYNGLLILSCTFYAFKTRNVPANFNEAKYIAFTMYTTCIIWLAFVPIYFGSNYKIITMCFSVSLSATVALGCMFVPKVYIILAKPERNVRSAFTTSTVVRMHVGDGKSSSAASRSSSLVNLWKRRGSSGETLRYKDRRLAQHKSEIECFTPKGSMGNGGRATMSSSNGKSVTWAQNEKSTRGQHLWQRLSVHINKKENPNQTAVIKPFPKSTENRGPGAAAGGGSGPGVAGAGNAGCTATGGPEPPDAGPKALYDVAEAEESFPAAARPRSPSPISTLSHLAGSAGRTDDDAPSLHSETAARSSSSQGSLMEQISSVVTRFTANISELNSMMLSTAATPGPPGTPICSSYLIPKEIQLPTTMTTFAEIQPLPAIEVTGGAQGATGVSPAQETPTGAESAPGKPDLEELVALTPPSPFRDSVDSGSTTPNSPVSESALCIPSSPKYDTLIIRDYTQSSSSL
resultType: Fold selectivity (mGlu3 vs. mGlu5)

{"molecule": "Cc1ccccc1NCc1cc2n(n1)[C@@H](C)CN(c1ccc(F)cc1)C2=O", "resultType": "Fold selectivity (mGlu3 vs. mGlu5)", "result": ">2.9"}
{"molecule": "COc1ccc(N(C)Cc2cc3n(n2)CCN(c2ccc(Cl)cn2)C3=O)cc1", "resultType": "Fold selectivity (mGlu3 vs. mGlu5)", "result": ">32"}
{"molecule": "O=C1c2cc(CNc3ccc(OC(F)F)c(F)c3)nn2CCN1c1ccc(F)cc1", "resultType": "Fold selectivity (mGlu3 vs. mGlu5)", "result": 3.19}
{"molecule": "CC(Nc1ccc(F)cc1)c1cc2n(n1)CCN(c1ccc(F)cc1)C2=O (centres unmarked)", "resultType": "Fold selectivity (mGlu3 vs. mGlu5)", "result": ">13"}
{"molecule": "COc1ccc(N(C)Cc2cc3n(n2)CCN(c2ccccc2F)C3=O)cc1", "resultType": "Fold selectivity (mGlu3 vs. mGlu5)", "result": ">34"}
{"molecule": "C[C@@H]1CN(c2ccc(F)cc2)C(=O)c2cc(CNc3ccc(CC#N)cc3)nn21", "resultType": "Fold selectivity (mGlu3 vs. mGlu5)", "result": ">20"}
{"molecule": "COc1cccc(NCc2cc3n(n2)CCN(c2ccc(F)cc2)C3=O)c1", "resultType": "Fold selectivity (mGlu3 vs. mGlu5)", "result": ">16"}
{"molecule": "C[C@@H]1CN(c2ccc(F)cc2)C(=O)c2cc(CNc3ccc(Cl)cc3)nn21", "resultType": "Fold selectivity (mGlu3 vs. mGlu5)", "result": ">8.0"}

###

biological target: rat mGlu3 (Rattus norvegicus (Rat), UniProt P31422); experiment: mGlu3 Ca2+ flux assay; assay type: cell-based; details: amplitude of response at 30 μM test compound as % of maximal response to glutamate; read-out: rat mGlu3 Glu max (%)
Sequence (P31422 23-879): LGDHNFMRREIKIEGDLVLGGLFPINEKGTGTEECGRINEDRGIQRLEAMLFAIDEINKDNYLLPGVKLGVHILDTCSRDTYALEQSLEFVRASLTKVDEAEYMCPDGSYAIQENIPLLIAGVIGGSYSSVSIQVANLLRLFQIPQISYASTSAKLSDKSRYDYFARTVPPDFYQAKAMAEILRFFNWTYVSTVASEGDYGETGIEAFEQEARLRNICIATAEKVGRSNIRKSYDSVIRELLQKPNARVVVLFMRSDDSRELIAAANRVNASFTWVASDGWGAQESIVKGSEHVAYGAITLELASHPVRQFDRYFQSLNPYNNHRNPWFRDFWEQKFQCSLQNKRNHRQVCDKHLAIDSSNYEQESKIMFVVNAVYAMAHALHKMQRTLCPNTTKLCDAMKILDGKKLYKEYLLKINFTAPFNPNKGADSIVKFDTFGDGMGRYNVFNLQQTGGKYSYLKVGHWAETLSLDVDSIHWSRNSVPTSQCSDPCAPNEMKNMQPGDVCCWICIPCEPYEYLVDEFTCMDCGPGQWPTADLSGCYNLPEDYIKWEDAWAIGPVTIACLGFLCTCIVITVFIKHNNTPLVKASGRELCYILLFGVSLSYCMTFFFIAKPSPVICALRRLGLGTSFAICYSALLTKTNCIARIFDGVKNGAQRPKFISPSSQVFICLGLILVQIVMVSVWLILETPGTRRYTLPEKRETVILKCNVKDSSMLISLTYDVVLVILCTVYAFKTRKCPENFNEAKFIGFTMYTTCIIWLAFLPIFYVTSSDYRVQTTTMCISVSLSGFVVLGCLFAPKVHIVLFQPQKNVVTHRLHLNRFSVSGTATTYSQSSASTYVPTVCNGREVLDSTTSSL

{"compoundStructure": "C[C@@H]1CN(c2ccc(F)cc2)C(=O)c2cc(CNc3cccc(Cl)c3)nn21", "remaining activity at 30 µM (%)": 1.63}
{"compoundStructure": "COc1ccc(N(C)Cc2cc3n(n2)CCN(c2cccc(F)c2F)C3=O)cc1", "remaining activity at 30 µM (%)": 1.67}
{"compoundStructure": "Cc1ccc(NCc2cc3n(n2)[C@@H](C)CN(c2ccc(F)cc2)C3=O)cc1", "remaining activity at 30 µM (%)": 3.14}
{"compoundStructure": "COc1cc(F)cc(N2CCn3nc(CNc4ccc(OC(F)F)cc4F)cc3C2=O)c1", "remaining activity at 30 µM (%)": 1.67}
{"compoundStructure": "C[C@@H]1CN(c2ccc(F)cc2)C(=O)c2cc(CNc3ccc(F)c(F)c3)nn21", "remaining activity at 30 µM (%)": 3.77}
{"compoundStructure": "Cc1ccccc1NCc1cc2n(n1)CCN(c1ccc(F)cc1)C2=O", "remaining activity at 30 µM (%)": 2.62}
{"compoundStructure": "CN(Cc1cc2n(n1)CCN(c1ccc(F)cc1)C2=O)c1ccccc1F", "remaining activity at 30 µM (%)": -0.98}
{"compoundStructure": "C[C@H]1CN(c2ccc(F)cc2)C(=O)c2cc(CNc3ccc(OC(F)F)cc3)nn21", "remaining activity at 30 µM (%)": 2.16}
{"compoundStructure": "C[C@H]1CN(c2ccc(F)cc2)C(=O)c2cc(CNc3cc(F)cc(F)c3)nn21", "remaining activity at 30 µM (%)": -2.19}
{"compoundStructure": "CN(Cc1cc2n(n1)CCN(c1ccc(F)cc1)C2=O)c1cccc(F)c1", "remaining activity at 30 µM (%)": 1.68}
{"compoundStructure": "O=C1c2cc(CNc3cc(F)ccc3F)nn2CCN1c1ccc(F)cc1", "remaining activity at 30 µM (%)": 2.45}
{"compoundStructure": "O=C1c2cc(CNc3ncccc3F)nn2CCN1c1ccc(F)cc1", "remaining activity at 30 µM (%)": 1.66}
{"compoundStructure": "O=C1c2cc(CNc3ccc(F)cc3F)nn2CCN1c1ccc(F)cc1", "remaining activity at 30 µM (%)": 1.76}
{"compoundStructure": "O=C1c2cc(CNc3cccc(F)c3F)nn2CCN1c1ccc(F)cc1", "remaining activity at 30 µM (%)": 2.82}
{"compoundStructure": "C[C@H]1CN(c2ccc(F)cc2)C(=O)c2cc(CNc3ccc(Cl)cc3)nn21", "remaining activity at 30 µM (%)": 2.22}
{"compoundStructure": "COc1ccc(N(C)Cc2cc3n(n2)CCN(c2cc(F)ccc2Cl)C3=O)cc1", "remaining activity at 30 µM (%)": 2.02}
{"compoundStructure": "COc1ccc(N(C)Cc2cc3n(n2)CCN(c2cccc(Cl)c2)C3=O)cc1", "remaining activity at 30 µM (%)": 1.53}
{"compoundStructure": "C[C@H]1CN(c2ccc(F)cc2)C(=O)c2cc(CNc3cccc(OC(F)F)c3)nn21", "remaining activity at 30 µM (%)": 1.85}
